These entries and their values trace back to patent US20260053811A1.

assay_text: Pharmacokinetics (plasma Cmax, AUC, Tmax, t1/2, trough concentrations)
Type: in vivo, human
test_conditions: human, plasma, oral; steady state Day 28; 50 mg QD; read-out: Tmax, Median
assay_metric: Tmax (h)

> print(dat)
                            chemical.smiles  assay.metric  result.number
1  CC(=O)N[C@H]1CC[C@H](NC(=O)CN2CCN(c3nncc(-c4ccc(C)cc4)n3)CC2)CC1          Tmax           2.01

====

assay_text: Pharmacokinetics (plasma Cmax, AUC, Tmax, t1/2, trough concentrations)
Type: in vivo, human
test_conditions: human, plasma, oral, 12.5 mg, Day 7; 12.5 mg BID; read-out: Trough Plasma Concentration, Mean (SD)
assay_metric: concentration at 7 day (ng/mL)

> print(dat)
                                   molecule            assay.metric  result.number
1  CC(=O)N[C@H]1CC[C@H](NC(=O)CN2CCN(c3nncc(-c4ccc(C)cc4)n3)CC2)CC1 [Compound A HBr]  concentration at 7 day           52.3

====

assay_text: Pharmacokinetics (plasma Cmax, AUC, Tmax, t1/2, trough concentrations)
Type: in vivo, human
test_conditions: human, plasma, oral, 50 mg, steady state Day 28; 50 mg QD; read-out: AUC0-24, Geo Mean
assay_metric: AUC(0-t) (ng·h/mL)

> print(dat)
                                   compound  assay.metric  result.number
1  CC(=O)N[C@H]1CC[C@H](NC(=O)CN2CCN(c3nncc(-c4ccc(C)cc4)n3)CC2)CC1 [Compound A HBr]      AUC(0-t)           3230

====

assay_text: Pharmacokinetics (plasma Cmax, AUC, Tmax, t1/2, trough concentrations)
Type: in vivo, human
test_conditions: human, plasma, oral, 50 mg, Day 56; 50 mg QD; read-out: Trough Plasma Concentration, Geometric Mean
assay_metric: concentration at 56 day

> print(dat)
                                   compound             assay.metric      result
1  CC(=O)N[C@H]1CC[C@H](NC(=O)CN2CCN(c3nncc(-c4ccc(C)cc4)n3)CC2)CC1 [Compound A HBr]  concentration at 56 day  38.1 ng/mL

====

assay_text: Pharmacokinetics (plasma Cmax, AUC, Tmax, t1/2, trough concentrations)
Assay type: in vivo, human
test_conditions: human, plasma, oral, 12.5 mg, Day 28; 12.5 mg BID; read-out: Trough Plasma Concentration, Mean (SD)
Excerpt: Pharmacokinetic endpoints of this study are PK parameters, including, of area under the plasma concentration versus time curve (AUC), maximum plasma concentration (Cmax), time to maximum concentration (Tmax), and half-life (t1/2) will be summarized descriptively for Randomization (baseline) and Study Weeks 1, 4, and 8 PK/PD Analysis Set includes all subjects in the SAF who have sufficient data available for the analysis of pharmacokinetic and pharmacodynamic measurements. […]
assay_metric: concentration at 28 day (ng/mL)

> print(dat)
                                   compound  result.number
1  CC(=O)N[C@H]1CC[C@H](NC(=O)CN2CCN(c3nncc(-c4ccc(C)cc4)n3)CC2)CC1 [Compound A HBr]           33.4

====

assay_text: Pharmacokinetics (plasma Cmax, AUC, Tmax, t1/2, trough concentrations)
Format: in vivo, human
test_conditions: human, plasma, oral, 50 mg, Day 28; 50 mg QD; read-out: Trough Plasma Concentration, Geo Mean
assay_metric: concentration at 28 day (ng/mL)

> print(dat)
                            chemical.smiles  result.number
1  CC(=O)N[C@H]1CC[C@H](NC(=O)CN2CCN(c3nncc(-c4ccc(C)cc4)n3)CC2)CC1           46.8
